biological target: CCHF virus vOTU protease domain (L polyprotein); assay: CCHF virus vOTU protease inhibition, Pep AMC substrate counterscreen, fluorescence, confirmatory IC50 (AID 720577); conditions: purified vOTU
Calls of active or inactive are those of the source. The rule behind the calls is not given here.
Tick one outcome: active, inactive

The following molecules have reported results that may help.
- Structure notation: "O=c1[nH]c(Nc2ccccc2)cc2cc(Br)ccc12"
  Classification: "active"
- Structure notation: "CC1=C(SCc2ccccc2)C(=O)c2ccccc2C1=O"
  Classification: "active"
- Structure notation: "CCOC(=O)N1CCN(C2=C(NS(=O)(=O)c3ccc(C)cc3)C(=O)c3ccccc3C2=O)CC1"
  Classification: "inactive"
- Structure notation: "COc1ccc(/C=N/NC(=O)c2nn(-c3ccc(Cl)cc3)c(=O)c3c(N)scc23)cc1"
  Classification: "inactive"

// switching to the query molecule
Q: For this molecule, state the assay outcome: O=C(NCCCO)c1ccc2nc(-c3ccco3)c(-c3ccco3)nc2c1
Ans: inactive

###

target: CCHF virus vOTU protease domain (L polyprotein); assay: CCHF virus vOTU protease inhibition, Pep AMC substrate counterscreen, fluorescence, confirmatory IC50 (AID 720577); conditions: purified vOTU
The source made the active and inactive calls. No rule for the calls is given here.
Attribute measured: IC50

Please review the entries below; each comes with its answer.
- Molecule: "CCc1ccc(S(=O)(=O)/N=C2\\C=C(Nc3cccc(C(=O)O)c3)C(=O)c3ccccc32)cc1"
  Target entity: "CCHF virus vOTU protease domain (L polyprotein)"
  IC50: "2.51 µM"
- Molecule: "CC(=O)[C@@H]1[C@@H]2C(=O)N(c3ccc(F)c(Cl)c3)C(=O)[C@@H]2C2c3ccccc3C=CN21 (some centres undefined)"
  Target entity: "CCHF virus vOTU protease domain (L polyprotein)"
  IC50: "inactive"
- Molecule: "COc1cc2c(cc1O)[C@@H]1Cc3ccc(OC)c(O)c3CN1CC2"
  Target entity: "CCHF virus vOTU protease domain (L polyprotein)"
  IC50: "inactive"
- Molecule: "O=S(=O)(c1ccc2nc(-c3ccco3)c(-c3ccco3)nc2c1)N1CCOCC1"
  Target entity: "CCHF virus vOTU protease domain (L polyprotein)"
  IC50: "> 115 µM (inactive)"
- Molecule: "COC(CNC(=O)c1ccc2c3c(onc13)-c1ccccc1C2=O)OC"
  Target entity: "CCHF virus vOTU protease domain (L polyprotein)"
  IC50: "inactive"
- Molecule: "Cc1ccc(NC2=C(N3CCCCC3)C(=O)c3ccccc3C2=O)cc1"
  Target entity: "CCHF virus vOTU protease domain (L polyprotein)"
  IC50: "inactive"
- Molecule: "CC(=O)N(/N=C1\\Sc2ccccc2C1=O)c1ccccc1C"
  Target entity: "CCHF virus vOTU protease domain (L polyprotein)"
  IC50: "inactive"
- Molecule: "CCOC(=O)c1cc2c(=Cc3ccc(N(C)C)cc3)c3ccccc3n2[n+]1C"
  Target entity: "CCHF virus vOTU protease domain (L polyprotein)"
  IC50: "5.69 µM"

Please go through the list and note IC50 for each molecule.
1. CC(=O)N(C1=C(Cl)C(=O)c2ccccc2C1=O)C1CCCCC1
2. O=C1C(N2CCOCC2)=C(n2nnc3ccccc32)C(=O)c2ccccc21
3. CN=c1sc2c(n1C)C(=O)c1ccccc1C2=O

Ans:
1: inactive; 2: 6.3 µM; 3: 5.75 µM

Please go through the list and note IC50 for each molecule.
1. O=C(c1ccco1)[C@@H]1[C@@H]2C(=O)N(c3ccc(Br)cc3)C(=O)[C@@H]2C2c3ccccc3C=CN21 (some centres undefined)
2. CCOC(=O)C1=C(COC(=O)c2ccc([N+](=O)[O-])s2)NC(=O)NC1C (centres undefined)
3. O=C(O)CSc1cc(NS(=O)(=O)c2ccc(Cl)cc2)c2ccccc2c1O
4. CC[n+]1c(-c2ccccc2)c2cc(N)ccc2c2ccc(N)cc21
5. Cc1ccc(NC2=C/C(=N/S(=O)(=O)c3cccs3)c3ccccc3C2=O)cc1

Ans:
1: inactive; 2: inactive; 3: inactive; 4: 3.32 µM; 5: 1.79 µM

Please go through the list and note IC50 for each molecule.
1. O=C(O)c1cc(O)c2c(c1)[C@H]([C@H]1c3cc(C(=O)O)cc(O)c3C(=O)c3c(O[C@@H]4O[C@H](CO)[C@@H](O)[C@H](O)[C@H]4O)cccc31)c1cccc(OC3O[C@H](CO)[C@@H](O)[C@H](O)[C@H]3O)c1C2=O (some centres undefined)
2. Cc1cc(C)c(S(=O)(=O)/N=C2\C=C(Nc3ccc(C(=O)O)cc3)C(=O)c3ccccc32)c(C)c1
3. NC(=S)N=Nc1c(O)cc(O)c2[nH]c(=O)ccc12

Ans:
7.68 µM
4.54 µM
inactive

###

biological target: CCHF virus vOTU protease domain (L polyprotein); assay: CCHF virus vOTU protease inhibition, Pep AMC substrate counterscreen, fluorescence, confirmatory IC50 (AID 720577); conditions: purified vOTU
Active and inactive are the calls of the source. The rule behind the calls is not given here.
Tick one outcome: active, inactive

- Molecule: "Nc1ccc(N2CCCCC2)c2nonc12"
  Classification: "inactive"
- Molecule: "Cc1ccc(S(=O)(=O)/N=C2\\C=C(Nc3cccc(C(=O)O)c3)C(=O)c3ccccc32)c(C)c1"
  Classification: "active"
- Molecule: "Cc1ccc(NC2=CC(=O)C(=O)c3ccccc32)cc1"
  Classification: "inactive"

Q: For this molecule, state the assay outcome: CCOC(=O)/C=C(\C)Sc1cc(O)c2ccccc2c1O
Ans: active

Q: Proceed to O=C(/C=C/c1ccc(O)cc1)c1ccc(NC2=C(N3CCCCC3)C(=O)c3ccccc3C2=O)cc1
Ans: inactive

Q: Proceed to CCCNC1=C(N(C(C)=O)c2cccc(F)c2)C(=O)c2ccccc2C1=O
Ans: inactive

###

target: CCHF virus vOTU protease domain (L polyprotein); test: CCHF virus vOTU protease inhibition, Pep AMC substrate counterscreen, fluorescence, confirmatory IC50 (AID 720577); conditions: purified vOTU
Activity calls are given as the source filed them. The rule behind the calls is not given here.
Attribute measured: IC50

Please review the entries below; each comes with its answer.
- Compound: "Oc1c(N=Nc2nn[nH]n2)ccc2ccccc12"
  Attribute measured: "IC50"
  Reported: "inactive"
- Compound: "O=S(=O)(Nc1c(S(=O)(=O)c2ccccc2)c2nc3ccccc3nc2n1C1CCCCC1)c1ccccc1"
  Attribute measured: "IC50"
  Reported: "> 115 µM (inactive)"
- Compound: "COC1=C(N)C(=O)c2nc(C)ccc2C1=O"
  Attribute measured: "IC50"
  Reported: "4.98 µM"
- Compound: "CCOC(=O)c1c2c(n(Cc3ccccc3)c1C)C(=O)C(=O)c1ccccc1-2"
  Attribute measured: "IC50"
  Reported: "1.49 µM"
- Compound: "O=[N+]([O-])c1ccccc1-c1ccc(C(=S)N2CCCC2)o1"
  Attribute measured: "IC50"
  Reported: "inactive"
- Compound: "CN1CCC/C1=C/C=C1\\SC(=S)NC1=O"
  Attribute measured: "IC50"
  Reported: "inactive"
- Compound: "CCCCCCCCCCCCCCCCn1cc[n+](C)c1"
  Attribute measured: "IC50"
  Reported: "7.06 µM"
- Compound: "O=C(N/N=C1\\C/C(=N\\NC(=O)c2ccncc2)c2ccccc21)c1ccncc1"
  Attribute measured: "IC50"
  Reported: "1.81 µM"

Please go through the list and note IC50 for each compound.
1. CCCCCCCCCCCCCCCC[n+]1cccc2ccccc21
2. O=C(NC(=S)Nc1ccccc1N1CCCC1)c1ccccc1Br
3. NS(=O)(=O)c1ccc(NC(=O)COC(=O)c2ccc([N+](=O)[O-])s2)cc1
4. CC(NC1=CC(=O)c2cccnc2C1=O)C(O)c1ccccc1 (stereo not given)
5. NS(=O)(=O)c1ccc(NC2=CC(=O)C(=O)c3ccccc32)cc1
6. O=C(COC(=O)c1ccc([N+](=O)[O-])s1)Nc1ncc(C(F)(F)F)cc1Cl
7. O=[N+]([O-])c1c(Nc2ccccn2)cc(Cl)c2nonc12

Ans:
1. 4.2 µM
2. > 115 µM (inactive)
3. inactive
4. 4.33 µM
5. inactive
6. inactive
7. inactive

###

target: CCHF virus vOTU protease domain (L polyprotein); assay: CCHF virus vOTU protease inhibition, Pep AMC substrate counterscreen, fluorescence, confirmatory IC50 (AID 720577); conditions: purified vOTU
Activity calls are given as the source filed them. The rule behind the calls is not given here.
Attribute measured: IC50

Please review the entries below; each comes with its answer.
- Molecule: "O=C(COC(=O)c1ccc([N+](=O)[O-])s1)Nc1ccc(F)cc1"
  Reported: "inactive"
- Molecule: "Cc1ccc(N2C(=O)[C@@H]3[C@H](C2=O)C2c4ccccc4C=CN2[C@@H]3C(=O)c2ccco2)cc1 (stereo partly specified)"
  Reported: "5.2 µM"
- Molecule: "Cc1coc2c(O)cc3c(c12)OC1(N2CCCCC2)C(=O)NCCCC31 (stereo unspecified)"
  Reported: "inactive"
- Molecule: "O=C(OCc1nnc(-c2ccccc2)o1)c1ccc([N+](=O)[O-])s1"
  Reported: "inactive"
- Molecule: "Cc1cccc(NC(=O)c2sc3nc4c(c(-c5cccs5)c3c2N)CN(C)CC4)c1"
  Reported: "inactive"
- Molecule: "NC1=C(Br)C(=O)c2ccccc2C1=O"
  Reported: "6.65 µM"
- Molecule: "CC(=O)N(C1=C(N)C(=O)c2ccccc2C1=O)c1ccccc1"
  Reported: "inactive"
- Molecule: "S=C(Nc1ccc(Cl)cc1)Nc1cccc2cnccc12"
  Reported: "8.74 µM"

Please go through the list and note IC50 for each molecule.
1. CCOc1ccc2noc3c2c1C(=O)c1ccccc1-3
2. Oc1c(C=Nc2cccc3nsnc23)ccc2ccccc12
3. O=C(O)c1ccc(S(=O)(=O)/N=C2\C=C(Nc3ccccc3F)C(=O)c3ccccc32)cc1
4. Cn1c2ccccc2c2cc(/C=N/NC(=O)c3cc(O)ccc3O)ccc21
5. Cc1c(C=O)c(Cl)n(C)c(=O)c1C#N

Ans:
["inactive", "inactive", "1.24 µM", "inactive", "inactive"]

Please go through the list and note IC50 for each molecule.
1. O=c1[nH]c(=S)[nH]c2c1C(c1ccc(Br)cc1)c1c([nH]c(=S)[nH]c1=O)O2
2. O=C1C(=O)c2ccccc2-c2ccccc21
3. O=C1C=C(NCc2ccccc2)c2ccccc2C1=O
4. Cc1ccccc1NC1=C/C(=N\S(=O)(=O)c2ccc(C(=O)O)cc2)c2ccccc2C1=O
5. O=C1C(=NO)CCc2ccccc21
6. O=C(NC(=S)Nc1ccccc1N1CCCC1)c1cccs1
7. CN(C)c1ccc2nc3ccc(=O)cc-3sc2c1
8. O=C(COC(=O)c1ccc([N+](=O)[O-])s1)Nc1ccccc1

Ans:
["inactive", "3.75 µM", "inactive", "0.536 µM", "inactive", "> 115 µM (inactive)", "> 115 µM (inactive)", "inactive"]

Please go through the list and note IC50 for each molecule.
1. CCC(CNc1cc(OC)cc2cccnc12)NC1CCCCC1 (stereo unspecified)
2. C[n+]1cccc2cccc([O-])c21
3. O=C1OC(Nc2cc(Br)cc3cccnc23)c2ccccc21 (stereo unspecified)
4. CCOc1ccc(NC(=S)Nc2ccc3nsnc3c2)cc1
5. CN1/C(=C\C=C2C(=O)NC(=O)NC2=O)C(C)(C)c2ccccc21

Ans:
1: 6.96 µM; 2: inactive; 3: 5.44 µM; 4: inactive; 5: inactive

Please go through the list and note IC50 for each molecule.
1. Cn1c(=O)c2c(-c3ccccc3)n(-c3ccc(N)cc3)cc2n(C)c1=O
2. CC(=O)N(/N=C1\Sc2ccccc2C1=O)c1cccc(C)c1

Ans:
["inactive", "inactive"]

Please go through the list and note IC50 for each molecule.
1. NC1=CC(=O)C(=O)c2cccnc21
2. COc1cc2c(cc1OC)-c1c(OC)c(OC)cc3c1C(C2)N(C)CC3 (stereo unspecified)
3. COc1ccc(C(C[N+](=O)[O-])c2c(C)[nH]n(-c3ccccc3)c2=O)cc1 (stereo unspecified)

Ans:
1. 4.94 µM
2. > 115 µM (inactive)
3. > 115 µM (inactive)

Please go through the list and note IC50 for each molecule.
1. CCC(COC)Oc1cc(NCc2ccccc2)c2ncn(C(C)C)c2c1 (stereo unspecified)
2. CN1CCN(C2=C(Cl)C(=O)c3ccccc3C2=O)CC1
3. O=C(O)CSc1cc(NS(=O)(=O)c2cccc([N+](=O)[O-])c2)c2ccccc2c1O
4. CC1OC2CC(=O)OC2C2=C1C(=O)c1c(O)cccc1C2=O (stereo unspecified)

Ans:
inactive
1.07 µM
7.61 µM
inactive

Please go through the list and note IC50 for each molecule.
1. C[n+]1c(-c2ccccc2)c2cc(N)ccc2c2ccc(N)cc21
2. O=C1NNC(c2ccccc2)=N/C1=C\c1ccccc1Cl

Ans:
["inactive", "inactive"]

Please go through the list and note IC50 for each molecule.
1. COc1ccc2noc3c2c1C(=O)c1ccccc1-3
2. Cc1ccccc1NC1=C/C(=N\S(=O)(=O)c2cccs2)c2ccccc2C1=O

Ans:
1. 6.28 µM
2. 1.04 µM
